This listing pairs compounds with measured pIC50.
target: recombinant human MAO-A (Homo sapiens (Human), UniProt P21397); experiment: Inhibition of monoamine oxidase MAO-A; conditions: kynuramine 50 μM, 25 min at 37° C.
Sequence (P21397 whole entry): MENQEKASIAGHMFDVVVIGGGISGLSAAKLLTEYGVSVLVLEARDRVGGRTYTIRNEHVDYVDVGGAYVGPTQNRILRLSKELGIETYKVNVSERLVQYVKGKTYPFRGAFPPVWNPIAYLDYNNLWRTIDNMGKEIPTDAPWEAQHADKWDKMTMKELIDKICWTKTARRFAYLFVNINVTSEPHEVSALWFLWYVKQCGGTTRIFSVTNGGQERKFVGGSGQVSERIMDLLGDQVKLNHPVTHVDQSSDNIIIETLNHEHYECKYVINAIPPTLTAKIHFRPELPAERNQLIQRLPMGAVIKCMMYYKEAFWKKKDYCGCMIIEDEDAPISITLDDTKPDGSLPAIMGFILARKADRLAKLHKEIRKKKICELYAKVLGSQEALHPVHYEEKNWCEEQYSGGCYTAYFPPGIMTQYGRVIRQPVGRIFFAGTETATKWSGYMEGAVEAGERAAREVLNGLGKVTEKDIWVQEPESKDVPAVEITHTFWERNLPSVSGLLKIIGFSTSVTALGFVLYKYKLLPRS
pIC50: −log10 of the molar value.

{"SMILES_CODE": "Cc1n[nH]c2ncc(-c3cncc(NC4CCN(C)CC4)n3)cc12", "pIC50": "< 4.00"}

Alright, here's another compound for you.
Please fill in: pIC50 reported for c1cc2cc(-c3cncc(N4CCOCC4)n3)cnc2[nH]1 = < 4.00

###

biological target: LRRK2 G2019S (Homo sapiens (Human), UniProt Q5S007, G2019S); assay: LRRK2 G2019S Kinase Assay; conditions: 10 μM ATP
Sequence (Q5S007 970-2527 G2019S): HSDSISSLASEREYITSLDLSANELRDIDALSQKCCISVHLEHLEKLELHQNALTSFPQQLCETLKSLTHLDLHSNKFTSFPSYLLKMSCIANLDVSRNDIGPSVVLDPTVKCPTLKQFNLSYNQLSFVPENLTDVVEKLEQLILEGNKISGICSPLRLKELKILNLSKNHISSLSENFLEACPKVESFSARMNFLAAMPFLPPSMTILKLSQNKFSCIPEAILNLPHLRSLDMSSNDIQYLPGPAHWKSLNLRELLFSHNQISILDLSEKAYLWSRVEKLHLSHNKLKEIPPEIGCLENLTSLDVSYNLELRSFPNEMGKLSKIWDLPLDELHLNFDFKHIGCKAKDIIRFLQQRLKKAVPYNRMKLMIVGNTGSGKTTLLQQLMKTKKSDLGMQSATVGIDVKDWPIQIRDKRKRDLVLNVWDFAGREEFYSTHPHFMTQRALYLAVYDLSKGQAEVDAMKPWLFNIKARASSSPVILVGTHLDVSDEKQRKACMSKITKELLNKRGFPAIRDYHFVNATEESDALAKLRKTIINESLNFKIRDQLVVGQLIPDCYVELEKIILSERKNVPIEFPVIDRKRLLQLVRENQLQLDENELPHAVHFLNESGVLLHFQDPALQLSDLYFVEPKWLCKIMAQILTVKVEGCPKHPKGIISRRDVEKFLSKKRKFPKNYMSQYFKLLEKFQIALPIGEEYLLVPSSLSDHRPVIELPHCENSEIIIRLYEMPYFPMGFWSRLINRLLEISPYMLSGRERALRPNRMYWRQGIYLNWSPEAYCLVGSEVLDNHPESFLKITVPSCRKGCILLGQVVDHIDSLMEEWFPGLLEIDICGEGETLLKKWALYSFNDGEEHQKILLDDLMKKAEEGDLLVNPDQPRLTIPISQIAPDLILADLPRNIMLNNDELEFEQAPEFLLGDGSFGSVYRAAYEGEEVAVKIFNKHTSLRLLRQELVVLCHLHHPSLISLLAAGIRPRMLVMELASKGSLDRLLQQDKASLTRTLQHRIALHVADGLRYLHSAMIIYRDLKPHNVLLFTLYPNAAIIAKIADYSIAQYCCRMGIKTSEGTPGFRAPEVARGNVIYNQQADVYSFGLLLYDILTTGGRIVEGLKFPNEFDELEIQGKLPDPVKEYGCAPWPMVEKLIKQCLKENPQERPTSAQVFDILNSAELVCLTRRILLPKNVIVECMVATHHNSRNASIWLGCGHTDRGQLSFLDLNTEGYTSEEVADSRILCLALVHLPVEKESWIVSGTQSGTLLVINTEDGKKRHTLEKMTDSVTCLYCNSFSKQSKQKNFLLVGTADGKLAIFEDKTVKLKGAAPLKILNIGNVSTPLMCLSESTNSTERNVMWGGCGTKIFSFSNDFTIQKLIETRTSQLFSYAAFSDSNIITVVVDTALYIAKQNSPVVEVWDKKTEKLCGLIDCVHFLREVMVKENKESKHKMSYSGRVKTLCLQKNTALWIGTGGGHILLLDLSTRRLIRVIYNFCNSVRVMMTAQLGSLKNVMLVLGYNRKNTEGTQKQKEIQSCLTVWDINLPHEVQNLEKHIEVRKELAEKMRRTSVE
ENDPOINT_LABEL: IC50

Examples from the recorded data:
{"MOLECULE": "Cc1n[nH]c2ncc(NC3CCCN(Cc4ccc(Cl)cc4)C3)cc12 (stereo not drawn)", "IC50": "> 500 nM"}
{"MOLECULE": "Cc1n[nH]c2ncc(-c3cccc(CC#N)c3)cc12", "IC50": "> 1000 nM"}

Please fill in: IC50 reported for Cc1n[nH]c2ncc(-c3cncc(C(=O)N4CCCCC4)n3)cc12 = > 500 nM

Reported IC50 ( Fc1c[nH]c2ncc(-c3cncc(N4CCOCC4)n3)cc12 ) = < 500 nM

Reported IC50 ( Cc1n[nH]c2ncc(-c3cncc(N4CCNC(=O)C4)n3)cc12 ) = > 500 nM

Sure, the documented IC50 for C=CC(=O)Nc1cccc(-c2cnc3[nH]nc(C)c3c2)c1 is > 1000 nM

Form: molecule = CN1CC(Nc2cncc(-c3cnc4[nH]ccc4c3)n2)C1 ; IC50 = > 500 nM

The measured IC50 associated with Cc1n[nH]c2ncc(-c3cncc(N4CCCC4=O)n3)cc12 reads > 500 nM

response.value for COc1ccccc1-c1n[nH]c2ncc(-c3ccsc3)cc12 (field: IC50) = < 500 nM
